Data provenance: ChEMBL document CHEMBL3352383

- experimental.details: Inhibition of Escherichia coli TrmD
pIC50: −log10 of the molar value.
property.measured: pIC50

>>> obs_value("Oc1ncnc2scc(-c3ccccc3)c12")
4.77

(a) O=C(NCc1ccc(CN2CC[C@H](O)C2)cc1)c1csc2nc[nH]c(=O)c12
(b) OCC1CCCCN1c1nc(Nc2cc(C3CC3)[nH]n2)c2cn[nH]c2n1 (centres undefined)
Query block: Of a and b , which carries the smaller reported pIC50 figure? API: response body contains the label of the selected item.
Result block: b

* * *

- Test system: Haemophilus influenzae
- experimental.details: Antibacterial activity against acrB-deficient Haemophilus influenzae
- Assay type: functional
property.measured: MIC

Worked examples follow.
>>> obs_value("COc1cc(OC)c(S(=O)(=O)N2c3ccccc3CC2C)cc1NC(C)=O (centres undefined)")
"> 64 µg/mL"
>>> obs_value("Oc1ncnc2scc(-c3ccccc3)c12")
"> 64 µg/mL"
>>> obs_value("COc1cc(OC)c(S(=O)(=O)N2c3ccccc3Oc3ccccc32)cc1NC(=O)CCC(=O)O")
"32 µg/mL"

Could you now look at the following compound, please?
Query block: Request body: readout MIC, system Haemophilus influenzae, query "O=C(NCc1ccc(CN2CC[C@H](O)C2)cc1)c1csc2nc[nH]c(=O)c12" . Return the value.
Result block: > 64 µg/mL

* * *

- experimental.details: Inhibition of Haemophilus influenzae TrmD
property.measured: IC50 (nM)
Your answer is read as nM, so omit the unit and give the number.

Query block: Request the reported IC50 associated with "O=C(NCc1ccc(CN2CC[C@H](O)C2)cc1)c1csc2nc[nH]c(=O)c12"
Result block: 420

* * *

- Test system: Pseudomonas aeruginosa
- experimental.details: Antibacterial activity against wild-type Pseudomonas aeruginosa
- Format: functional
- measurement.conditions: Pseudomonas aeruginosa
MIC listing for selected molecules.

Worked examples follow.
>>> obs_value("C[C@@H](O)[C@H]1C(=O)N2C(C(=O)O)=C([C@H]3CCCO3)S[C@H]12")
"< 100 µM"
>>> obs_value("Cn1nc(Nc2nc(N[C@H](CO)c3ccccc3)nc3[nH]ncc23)cc1C(C)(C)C")
"> 64 µg/mL"

Could you now look at the following molecule, please?
Query block: Request body: readout MIC, system Pseudomonas aeruginosa, query OCC1CCCCN1c1nc(Nc2cc(C3CC3)[nH]n2)c2cn[nH]c2n1 (stereo not drawn) . Return the value.
Result block: > 64 µg/mL
